Let's go through some recorded pIC50 values for aromatase (Homo sapiens, UniProt P11511) together.
pIC50: −log10 of the molar value. Counter-ions that a name gives are not always drawn.
recorded.metric: pIC50

In [3]: df
Out[3]:
                                   compound                           subject_of_test  recorded_metric  measured
0  CCCCCCn1nnc2ccc(C3CCCc4cncn43)cc21 (stereo not shown)  aromatase (Homo sapiens, UniProt P11511)            pIC50      7.60
1  CC(C)n1nnc2ccc(C3CCCc4cncn43)cc21 (stereo not shown)  aromatase (Homo sapiens, UniProt P11511)            pIC50      7.25
2  CCCOn1nnc2ccc(C3CCCc4cncn43)cc21 (stereo not shown)  aromatase (Homo sapiens, UniProt P11511)            pIC50      7.53
3  CC(C)Cn1nnc2ccc(C3CCCc4cncn43)cc21 (stereo not shown)  aromatase (Homo sapiens, UniProt P11511)            pIC50      7.34
4  c1cc2nnn(C3CCCCC3)c2cc1C1CCCc2cncn21 (stereo not shown)  aromatase (Homo sapiens, UniProt P11511)            pIC50      7.39
5  CCCCOn1nnc2ccc(C3CCCc4cncn43)cc21 (stereo not shown)  aromatase (Homo sapiens, UniProt P11511)            pIC50      7.50

(P) CCCn1nnc2ccc(C3CCCc4cncn43)cc21 (stereo not shown)
(Q) C=C(C)COn1nnc2ccc(C3CCCc4cncn43)cc21 (stereo not shown)
Given P and given Q , which shows the smaller recorded pIC50? Your answer should be the label of the entry you select.
P

(I) CCn1nnc2ccc(C3CCCc4cncn43)cc21 (stereo not shown) [Compound 26, monohydrochloride]
(II) C#CCOn1nnc2ccc(C3CCCc4cncn43)cc21 (stereo not shown)
Which one would you say has the larger pIC50 value: I , or II ? Your answer should be the label of the entry you select.
II
(II: 7.53, I: 7.27)

---

# subject.of.test: aromatase (Rattus norvegicus)
# Construct: Immature female Wistar rats weighing 120 g were injected subcutaneously; from tissue; host or cells: whole animal: immature female Wistar rats primed with PMSG (endogenous, mainly ovarian, aromatase by own knowledge)
# Sequence (P22443 whole entry): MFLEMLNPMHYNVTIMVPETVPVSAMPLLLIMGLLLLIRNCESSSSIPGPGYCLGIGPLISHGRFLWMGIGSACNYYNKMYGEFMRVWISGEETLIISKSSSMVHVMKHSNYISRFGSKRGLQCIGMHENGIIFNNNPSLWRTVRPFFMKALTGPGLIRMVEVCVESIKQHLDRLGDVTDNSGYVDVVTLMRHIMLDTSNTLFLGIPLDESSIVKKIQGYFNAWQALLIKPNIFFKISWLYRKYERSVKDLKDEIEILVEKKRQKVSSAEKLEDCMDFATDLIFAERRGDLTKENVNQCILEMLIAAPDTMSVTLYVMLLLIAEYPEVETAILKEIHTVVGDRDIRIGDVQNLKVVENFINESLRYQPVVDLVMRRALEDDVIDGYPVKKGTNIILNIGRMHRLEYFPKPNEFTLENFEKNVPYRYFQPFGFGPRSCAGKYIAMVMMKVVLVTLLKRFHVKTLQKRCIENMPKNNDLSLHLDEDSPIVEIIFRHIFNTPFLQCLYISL
# assay.explanation: In vivo inhibition of the aromatase activity (plasma estradiol in PMSG-injected immature female rats)
# Parameters: species or system Wistar rats
# condition.label: 1 mg/kg by oral gavage, immature female Wistar rats 90 h after PMSG, plasma estradiol two hours after administration, relative to controls, read-out: Aromatase in vivo % inhibition at 1 mg/kg
recorded.metric: inhibition at 1 mg/kg (%)

In [3]: df
Out[3]:
                                   compound                subject_of_test        recorded_metric  measured
0  CCCCn1nnc2ccc(C3CCCc4cncn43)cc21 (stereo not shown) [Compound 24]  aromatase (Rattus norvegicus)  inhibition at 1 mg/kg        89
1  CC(C)n1nnc2ccc(C3CCCc4cncn43)cc21 (stereo not shown) [Compound 25]  aromatase (Rattus norvegicus)  inhibition at 1 mg/kg        91
2  CCCCOn1nnc2ccc(C3CCCc4cncn43)cc21 (stereo not shown) [Compound 10]  aromatase (Rattus norvegicus)  inhibition at 1 mg/kg        88
3  OCCOn1nnc2ccc(C3CCCc4cncn43)cc21 (stereo not shown) [Compound 21]  aromatase (Rattus norvegicus)  inhibition at 1 mg/kg        88
4  COn1nnc2ccc(C3CCCc4cncn43)cc21 (stereo not shown) [Compound 9]  aromatase (Rattus norvegicus)  inhibition at 1 mg/kg        89
5  N#CCCCCOn1nnc2ccc(C3CCCc4cncn43)cc21 (stereo not shown) [Compound 18]  aromatase (Rattus norvegicus)  inhibition at 1 mg/kg        88
6  CCCOn1nnc2ccc(C3CCCc4cncn43)cc21 (stereo not shown) [Compound 3]  aromatase (Rattus norvegicus)  inhibition at 1 mg/kg        92
